tested.system: PIP4K2C (Homo sapiens, UniProt Q8TBX8)
method: Enzyme Binding Assay (KINOMEscan): active site-directed competition binding to an immobilized ligand
measurement.conditions: 11-point dose response, duplicate, top concentration 5 micromolar; read-out: Pip4k2c Kd: IC50
property.name: IC50

Consider the following illustrative entries.
compound="CC(=O)N1CCC[C@H](Nc2ncc(Cl)c(-c3cc(C4CC4)[nH]n3)n2)C1 [Compound 192]" recorded_measurement="< 0.5 µM"
compound="O=C(CC1CCNCC1)N1CCC(Nc2ncc(Cl)c(-c3cccc(-c4ccccc4)c3)n2)CC1 [Compound 5]" recorded_measurement="< 0.5 µM"
compound="CC(=O)N[C@H]1CC[C@H](Nc2ncc(Cl)c(-c3cnn(-c4ccc(F)cc4)c3)n2)CC1 [Compound 121]" recorded_measurement="< 0.5 µM"
compound="CC(=O)N1CCC(Nc2ncc(F)c(-c3cccc(C4CCCN(C(C)=O)C4)c3)n2)CC1 (stereo not shown) [Compound 179]" recorded_measurement="< 0.5 µM"
compound="CC(=O)N[C@H]1CC[C@H](Nc2ncc(F)c(-c3cccc(N4CCCC4=O)c3)n2)CC1 [Compound 248]" recorded_measurement="< 0.5 µM"

Look up IC50 for this compound: CC(=O)N1CCC(Nc2ncc(F)c(-c3cccc(N4CCOCC4)c3)n2)CC1 [Compound 606]
< 0.5 µM

Look up IC50 for this compound: NC(=O)[C@H]1CC[C@H](Nc2ncc(F)c(-c3cccc(N4CCOCC4=O)n3)n2)CC1 [Compound 271]
< 0.5 µM

Look up IC50 for this compound: NC(=O)[C@H]1CC[C@H](Nc2ncc(F)c(-c3ccnc(-n4ccccc4=O)c3)n2)CC1 [Compound 623]
< 0.5 µM

Look up IC50 for this compound: NC(=O)[C@@H]1CCC[C@H](Nc2ncc(F)c(-c3ccnc(N4CCOCC4=O)c3)n2)C1 (relative stereo) [Compound 629]
< 0.5 µM

Look up IC50 for this compound: CC(=O)N[C@H]1CC[C@H](Nc2ncc(F)c(-c3ccnc(N4CCOCC4=O)c3)n2)CC1 [Compound 272]
< 0.5 µM

Look up IC50 for this compound: CC(=O)N[C@H]1CC[C@H](Nc2ncc(F)c(-c3cccc(N4CCCCC4=O)n3)n2)CC1 [Compound 625]
< 0.5 µM

Look up IC50 for this compound: CC(=O)N[C@H]1CC[C@@H](Nc2ncc(Cl)c(-c3cccc(-c4ccc(F)cc4)n3)n2)CC1 [Compound 130]
< 0.5 µM

Look up IC50 for this compound: Cc1ccc(=O)n(-c2cccc(-c3nc(N[C@H]4CC[C@H](C(N)=O)CC4)ncc3F)c2)c1 [Compound 247]
< 0.5 µM

Look up IC50 for this compound: CC(=O)N1CCC(Nc2ncc(Cl)c(-c3ccc(F)cc3)n2)CC1 [Compound 27]
0.5 to 1 µM

Look up IC50 for this compound: NC(=O)[C@H]1CC[C@H](Nc2ncc(F)c(-c3cccc(-n4ccccc4=O)n3)n2)CC1 [Compound 617]
< 0.5 µM

Look up IC50 for this compound: CNC(=O)[C@H]1C[C@H](Nc2ncc(Cl)c(-c3cnn(-c4ccc[nH]c4=O)c3)n2)C1 [Compound 166]
< 0.5 µM

Look up IC50 for this compound: NC(=O)[C@H]1CCC[C@@H](Nc2ncc(Cl)c(C3CCN(C(=O)c4ccc(F)cc4)C3)n2)C1 (relative stereo) [Compound 135]
< 0.5 µM

Look up IC50 for this compound: O=C1CC(Nc2ncc(Cl)c(-c3cccc(-c4ccccc4)c3)n2)CCN1 (stereo not shown) [Compound 15]
< 0.5 µM

Look up IC50 for this compound: CNC(=O)[C@H]1CC[C@@H](Nc2ncc(Cl)c(-c3cccc(-c4ccc[nH]c4=O)c3)n2)CC1 [Compound 138]
< 0.5 µM

Look up IC50 for this compound: NC(=O)[C@H]1CC[C@H](Nc2ncc(F)c(-c3cccc(N4CCOCC4=O)c3)n2)CC1 [Compound 268]
< 0.5 µM

Look up IC50 for this compound: CNC(=O)[C@H]1CC[C@H](Nc2ncc(Cl)c(-c3cnn(C4CC4)c3)n2)CC1 [Compound 117]
< 0.5 µM

Look up IC50 for this compound: CC(=O)N1CCC(Nc2ncc(F)c(-c3cccc(N4C[C@H](O)CC4=O)c3)n2)CC1 [Compound 237]
< 0.5 µM

Look up IC50 for this compound: CC(=O)N[C@H]1CC[C@H](Nc2ncc(F)c(-c3cccc(N4CCOCC4=O)n3)n2)CC1 [Compound 270]
< 0.5 µM

Look up IC50 for this compound: CC(=O)N1CCC[C@H](Nc2ncc(Cl)c(-c3cccc(-c4ccc(F)cc4)n3)n2)C1 [Compound 194]
1 to 5 µM

Look up IC50 for this compound: NC(=O)[C@@H]1CCC[C@H](Nc2ncc(F)c(-c3ccnc(C4(O)CCC4)c3)n2)C1 [Compound 244]
< 0.5 µM

Look up IC50 for this compound: CC(=O)N[C@H]1CC[C@H](Nc2ncc(F)c(-c3cccc(-c4ccc(=O)[nH]c4)c3)n2)CC1 [Compound 203]
< 0.5 µM

Look up IC50 for this compound: CNC(=O)[C@H]1C[C@H](Nc2ncc(Cl)c(-c3cnn(-c4cc[nH]c(=O)c4)c3)n2)C1 [Compound 133]
0.5 to 1 µM

Look up IC50 for this compound: NC(=O)[C@@H]1CCC[C@H](Nc2ncc(F)c(-c3ccn(C4CCCCC4)n3)n2)C1 (relative stereo) [Compound 113]
1 to 5 µM

Look up IC50 for this compound: CC(=O)N1CCC(Nc2ncc(Cl)c(N3CCCCC3)n2)CC1 [Compound 24]
1 to 5 µM

Look up IC50 for this compound: NC(=O)[C@H]1CC[C@H](Nc2ncc(F)c(-c3cccc(N4CCCCC4=O)n3)n2)CC1 [Compound 274]
< 0.5 µM

Look up IC50 for this compound: CC(=O)N1CCC(Nc2ncc(F)c(-c3cccc(-c4cc[nH]c(=O)c4)c3)n2)CC1 [Compound 187]
< 0.5 µM

----------
// values below are reported pIC50
tested.system: UniProtKB Q8TBX8
Sequence (Q8TBX8 1-421): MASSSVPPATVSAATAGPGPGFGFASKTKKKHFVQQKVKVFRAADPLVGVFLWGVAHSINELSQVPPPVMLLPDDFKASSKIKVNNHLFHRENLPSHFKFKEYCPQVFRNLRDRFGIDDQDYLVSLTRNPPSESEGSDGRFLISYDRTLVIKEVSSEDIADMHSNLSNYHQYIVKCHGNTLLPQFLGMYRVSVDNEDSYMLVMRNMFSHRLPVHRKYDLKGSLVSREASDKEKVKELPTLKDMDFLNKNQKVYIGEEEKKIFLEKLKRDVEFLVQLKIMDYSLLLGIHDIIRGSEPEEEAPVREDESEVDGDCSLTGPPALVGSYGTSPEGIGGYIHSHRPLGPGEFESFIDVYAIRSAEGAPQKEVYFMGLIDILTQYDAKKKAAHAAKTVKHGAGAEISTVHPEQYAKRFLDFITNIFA
method: Enzyme Binding Assay (KINOMEscan): active site-directed competition binding to an immobilized ligand
measurement.conditions: 11-point dose response, duplicate, top concentration 5 micromolar; read-out: Pip4k2c Kd: IC50
pIC50: −log10 of the molar value.

Consider the following illustrative entries.
compound_smiles=NC(=O)[C@H]1CC[C@H](Nc2ncc(F)c(-c3cccc(N4CCCCC4)c3)n2)CC1 tested_system="UniProtKB Q8TBX8" recorded_measurement="> 6.30"
compound_smiles=NC(=O)[C@H]1CC[C@@H](Nc2ncc(Cl)c(-c3ccc(F)cc3)n2)CC1 tested_system="UniProtKB Q8TBX8" recorded_measurement="6.00 to 6.30"
compound_smiles=CC(=O)N1CCC[C@H](Nc2ncc(Cl)c(-c3ccnc(-c4ccc(F)cc4)c3)n2)C1 tested_system="UniProtKB Q8TBX8" recorded_measurement="> 6.30"

Here's the next entry for you.
Look up pIC50 for this compound: CC(=O)N1CCC(Nc2ncc(F)c(-c3cccc(N4CCC[C@H](O)C4)c3)n2)CC1
> 6.30

----------
tested.system: PIP4K2C (Homo sapiens, UniProt Q8TBX8)
Sequence (Q8TBX8 1-421): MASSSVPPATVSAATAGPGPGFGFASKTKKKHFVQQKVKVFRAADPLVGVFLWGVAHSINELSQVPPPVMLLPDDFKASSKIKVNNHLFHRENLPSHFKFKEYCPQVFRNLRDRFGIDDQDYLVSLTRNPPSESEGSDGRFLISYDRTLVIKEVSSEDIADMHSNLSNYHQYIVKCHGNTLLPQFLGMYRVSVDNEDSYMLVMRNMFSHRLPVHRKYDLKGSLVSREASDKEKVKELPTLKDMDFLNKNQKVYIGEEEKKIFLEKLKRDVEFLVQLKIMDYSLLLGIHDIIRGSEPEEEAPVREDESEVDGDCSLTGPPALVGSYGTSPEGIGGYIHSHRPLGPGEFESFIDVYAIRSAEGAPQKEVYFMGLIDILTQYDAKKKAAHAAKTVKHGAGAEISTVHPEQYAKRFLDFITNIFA
method: HiBiT PIP4K2C degradation assay in MOLT-4 cells (endogenous PIP4K2C C-terminally tagged with HiBiT)
Assay type: cell-based
Set-up: untagged in primary human PBMCs and monocyte-derived dendritic cells
measurement.conditions: 6 hours of incubation time, rather than 24 hours; MOLT-4, top concentration 10 micromolar; read-out: HiBIT-degradation MOLT4 PIP4k2C DC50 (6 hours, marked *)
property.name: DC50

compound="O=C1CCC(Nc2ccc(C3CCN(CC4CCN(C(=O)[C@H]5CC[C@H](Nc6ncc(F)c(-c7cccc(N8CCCOC8=O)c7)n6)CC5)CC4)CC3)c(F)c2)C(=O)N1 (stereo partly drawn) [Compound 427]" property_name=DC50 recorded_measurement="< 500 nM"
compound="O=C1CCC(Nc2ccc(C3CCN([C@H]4CC[C@H](C(=O)N[C@H]5CC[C@H](Nc6ncc(F)c(-c7cccc(-c8ccc[nH]c8=O)c7)n6)CC5)CC4)CC3)c(F)c2)C(=O)N1 (stereo partly drawn) [Compound 396]" property_name=DC50 recorded_measurement="< 500 nM"

Here's the next entry for you.
Look up DC50 for this compound: O=C1CCC(Nc2ccc(N3CCN(C4CC5(C4)CN(C(=O)O[C@H]4CC[C@H](Nc6ncc(F)c(-c7cccc(-n8ccccc8=O)c7)n6)CC4)C5)CC3)c(F)c2)C(=O)N1 (stereo partly drawn) [Compound 681]
< 500 nM

From: patent US20260355196A1
